Biological target: T1, hen egg lysozyme (Gallus gallus (hen), UniProt P00698)
T1 construct: hen egg lysozyme (lysozyme C), bought from Wako Pure Chemical; also called HEL; source: bought: Wako Pure Chemical (Cat. No. 126-02671), used without further purification
T1 sequence (P00698 19-147): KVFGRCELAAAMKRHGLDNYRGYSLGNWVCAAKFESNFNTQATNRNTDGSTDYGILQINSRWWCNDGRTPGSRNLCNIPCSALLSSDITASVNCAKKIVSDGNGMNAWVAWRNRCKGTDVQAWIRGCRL
Test: SPR; Biacore T200; HEL immobilised on CM5 chip (200 RU); VHH flowed over; 25 °C; PBS with 0.005% Tween 20; global fit to a 1:1 binding model
Conditions: both partners purified
METRIC: koff (s⁻¹)
Respond with the bare value in s⁻¹.

Example results:
D3-L11 D115A (VHH, as the VHH chain of m2 with the stated change; source: E. coli BL21(DE3), purified (Ni-NTA, SEC)) VHH: DVQLVESGGGSVQAGGSLRLSCAASGSTDSIEYMTWFRQAPGKAREGVAALYTHTGNTYYTDSVKGRFTISQDKAKNMAYLRMDSVKSEDTAIYTCGATRKYVPVRFALDQSSYAYWGQGTQVTVSS = 0.000956
D3-L11 H54A (VHH, as the VHH chain of m2 with the stated change; source: E. coli BL21(DE3), purified (Ni-NTA, SEC)) VHH: DVQLVESGGGSVQAGGSLRLSCAASGSTDSIEYMTWFRQAPGKAREGVAALYTATGNTYYTDSVKGRFTISQDKAKNMAYLRMDSVKSEDTAIYTCGATRKYVPVRFALDQSSYDYWGQGTQVTVSS = 0.00921
D3-L11 K101A (VHH, as the VHH chain of m2 with the stated change; source: E. coli BL21(DE3), purified (Ni-NTA, SEC)) VHH: DVQLVESGGGSVQAGGSLRLSCAASGSTDSIEYMTWFRQAPGKAREGVAALYTHTGNTYYTDSVKGRFTISQDKAKNMAYLRMDSVKSEDTAIYTCGATRAYVPVRFALDQSSYDYWGQGTQVTVSS = 0.000687

Next up:
Data request, read-out koff, for D3-L11 T55A (VHH, as the VHH chain of m2 with the stated change; source: E. coli BL21(DE3), purified (Ni-NTA, SEC)) VHH: DVQLVESGGGSVQAGGSLRLSCAASGSTDSIEYMTWFRQAPGKAREGVAALYTHAGNTYYTDSVKGRFTISQDKAKNMAYLRMDSVKSEDTAIYTCGATRKYVPVRFALDQSSYDYWGQGTQVTVSS
0.0113
